Measured growth, listed per entry.
# System: NCI-H460 lung
# assay comment: NCI-60 one-dose screen, 48 h (100 = growth as untreated, 0 = no growth, -100 = all killed)
# setup conditions: 10 µM
The panel holds about 83,000 compounds, 20% with a hit somewhere; the sample as a whole holds those more often.
Number in %, nothing else.

The following compounds have reported results that may help.
NS(=O)(=O)c1ccc(NC(=O)CSc2ccc(-c3ccc(Cl)cc3)nn2)c(Br)c1
23
CC(=C(c1ccc(OCCN2CCCCC2)cc1)c1ccc(OCCN2CCCCC2)cc1)c1ccccc1
41.6
CC(=C(c1ccc(OCCN2CCCCCC2)cc1)c1ccc(OCCN2CCCCCC2)cc1)c1ccc(Cl)cc1
-54.1
Nc1nnc(-c2c[nH]c3ncccc23)c(-c2c[nH]c3ccc(Br)cc23)n1
27.2
Cc1ccc2nc3c(nc2c1)c1cc(I)ccc1n3CCN(C)C
-2.92

Given item Nc1nc(-c2ccccc2)cs1 , the value recorded as its growth is 73.2

COc1ccc(-c2cc(-c3cc(C(=O)c4ccc(Br)cc4)n4ccc(C)cc34)nc(N)c2C#N)cc1 has a reported growth of 84.7

Entry CCOC(=O)C(Cc1ccccc1)N1C(=O)/C(=C/N2N=C(c3ccc(OC)cc3)CC2c2ccc3ccccc3c2)SC1=S (centres undefined) ; growth = -3.96

Reported growth of COc1ccc(-c2cc(C(=O)N=Nc3c(O)[nH]c4ccc(F)cc34)c3ccccc3n2)cc1 : 44.2

---

# System: SK-MEL-2 melanoma
# assay comment: NCI-60 one-dose screen, 48 h
# setup conditions: 10 µM
This is part of a sample that, as a whole, favours compounds with a hit. Of some 83,000 tested, about 20% had one in any assay. Activity calls are given as the source filed them. Rule for the calls: active = growth percent below 10; inactive = the rest.
Select the matching outcome among TRUE for active, FALSE for inactive

COc1ccc(-c2nc(S(=O)(=O)c3ccc(C)cc3)c(S(=O)(=O)CC(=O)N(C)Cc3ccccc3)o2)cc1
FALSE
CC(=O)c1cc(C(=O)c2ccc3c(c2)NC(=O)CO3)n2ccc3ccccc3c12
FALSE
CC1(C)CC[C@]2(C(=O)N3CCOCC3)CC[C@]3(C)C(=CC[C@@H]4[C@@]5(C)CC[C@H](NCO)C(C)(C)[C@@H]5CC[C@]43C)[C@H]2C1
TRUE

Enquiry: Please share the test call associated with COc1ccc2ncc(C#Cc3cncc(C(=O)Nc4ccc(CN5CCN(C)CC5)c(C(F)(F)F)c4)c3)n2n1 .
Return: TRUE

Enquiry: Assay result, entry O=C(CSc1nnc(-c2c[nH]c3ccccc23)n1-c1ccccc1)Nc1ccc(C(=O)/C=C/c2ccc(Br)cc2)cc1 — outcome?
Return: FALSE

Enquiry: How did this test come out for COc1ccc(N(C)c2cc(C#N)nc3ccccc23)cc1/C=C/C(=O)NO ?
Return: TRUE

Enquiry: Test call for this compound, please: CC1=C2C(=C[C@@](C)(CO)[C@@H]2O)/C(=N\N)[C@](C)(O)C12CC2
Return: TRUE

Enquiry: Test call for this compound, please: O=C(c1ccc(Cl)cc1)C1[C@H](c2ccc(Br)cc2)[C@@H](c2ccccc2)NC12C(=O)Nc1ccc(Br)cc12 (some centres undefined)
Return: TRUE

---

# System: EKVX NSCLC
# assay comment: NCI-60 one-dose screen, 48 h (100 = growth as untreated, 0 = no growth, -100 = all killed)
# setup conditions: 10 µM
This is part of a sample that, as a whole, favours compounds with a hit. Of some 83,000 tested, about 20% had one in any assay. Activity calls are given as the source filed them. The calls were made as follows: active = growth percent below 10; inactive = the rest.
Overview of reported growth across a group of compounds:

Known growth results, listed for orientation:
COc1ccc2cc([C@H](C)C(=O)NCc3ccccc3)ccc2c1
42.5% (inactive)
O=C1Nc2ccc(Cl)cc2/C1=C/c1cccc(OCc2ccccc2)c1
19.4% (inactive)
CC[C@@]1(O)C(=O)OCc2c1cc1n(c2=O)Cc2c-1nc1cc(F)c(C)c3c1c2[C@@H](N)CC3
15.4% (inactive)

The recorded growth with EKVX NSCLC for CC(=O)OC[C@@]1(C)C2CC[C@]3(C)C(CC=C4C5CC(C)(C)CC[C@]5(C(=O)Nc5ccccc5)CC[C@]43C)[C@@]2(C)C[C@@H](OC(C)=O)[C@@H]1OC(C)=O (stereo partly specified) was 26.8% (inactive)

Given the compound Cc1ccc(C(=O)NNC(=O)CSc2nc3ccccc3c(=O)[nH]2)cc1 and test system EKVX NSCLC, the measured growth is 97.2% (inactive)

Result for Cc1ccc(NCC(=O)Nn2c(COc3ccccc3)nc3ccccc3c2=O)cc1 , tested on EKVX NSCLC, growth: 84.6% (inactive)

---

# Test system: BT-549 breast
# assay comment: NCI-60 one-dose screen, 48 h (100 = growth as untreated, 0 = no growth, -100 = all killed)
# setup conditions: 10 µM
About 83,000 compounds went through this panel and 20% of them were active in at least one assay; those are over-represented in the sample as a whole.
quantity kind: growth (%)
Kindly answer with a numeric value in %, unit omitted.

O=C(c1ccc(Cl)cc1)C1[C@H](c2ccccc2Br)[C@@H](c2ccccc2)NC12C(=O)Nc1ccccc12 (stereo not given in full)
48
CN1CCN(c2ccc(Nc3nc(NCCCNC(=O)C4CCCCC4)c4sccc4n3)cc2)CC1
69.1
CC(=O)c1ccc(NC(=O)NCn2c(=O)[nH]c3ccccc3c2=O)cc1
159

The measured growth associated with COc1cc(C2CC(c3ccccc3)=Nc3c(N)nc(N)nc3N2)ccc1Oc1nc(Nc2ccc(F)cc2)nc(N(C)C)n1 (stereo not given) reads 45

Recorded growth (molecule O=C(NO)c1ccc(-c2nc3ccc4[nH]ncc4c3c3c2CCCC3)cc1 ): -50.2

---

# Test system: HOP-62 NSCLC
# assay comment: NCI-60 one-dose screen, 48 h
# setup conditions: 10 µM
Compounds without any hit were thinned out: in the full panel of roughly 83,000, 20% have a hit. Activity calls are given as the source filed them. How the source made its calls: active means growth percent below 10; inactive means the rest.
Answer with one of the outcomes active, inactive

Some solved cases for reference:
COc1ccc(-c2cc(-c3cc(C(=O)c4ccc(Br)cc4)n4ccc(C)cc34)nc(N)c2C#N)cc1
inactive
Cc1ccc(NC(=O)NCn2c(=O)[nH]c3ccccc3c2=O)cc1
inactive
Cc1noc2c(Cc3ccc([N+](=O)[O-])cc3)nn(CC(=O)N/N=C/c3ccc(Cl)cc3)c(=O)c12
inactive
Cn1cc(-c2cc(N)n3nc(-c4c[nH]c5ccc(Br)cc45)cc3n2)c2cc(Br)cnc21
active
CCOC(=O)N/C(=C1/OCCN1C)[P+](c1ccccc1)(c1ccccc1)c1ccccc1
inactive
C=CC(=O)Nc1ccc(C(=O)/C=C/c2ccc(N(C)CCF)cc2)c(O)c1
active
COc1ccc(C(C)=C(c2ccc(OCCCN(C)C)cc2)c2ccc(OCCCN(C)C)cc2)cc1
active

Read the next record carefully.
Enquiry: // param item: Nc1cccnc1/C=N/NC(=S)NCCNC(=O)c1ccc(-n2nc(-c3ccccc3O)nc2-c2ccccc2O)cc1 ; yields the recorded call
Return: inactive

---

# System: NCI-H460 lung
# assay comment: NCI-60 one-dose screen, 48 h (100 = growth as untreated, 0 = no growth, -100 = all killed)
# setup conditions: 10 µM
About 83,000 compounds went through this panel and 20% of them were active in at least one assay; those are over-represented in the sample as a whole.
Below, each of the molecules is paired with its reported growth value.
Respond with the bare value in %.

Please review the following examples before continuing.
CC(=O)C1=C(C)NC(SCC(=O)Nc2ccc(S(=O)(=O)Nc3cc(C)on3)cc2)=NC1c1ccccc1 (stereo not given)
98.3
Cc1nc2c(cnn2-c2ccccc2)c(=O)n1-c1ccc(NC(=O)c2ccc(F)cc2)cc1
54.4
Nc1nc2c(F)c(F)c(F)c(F)c2s1
107

CC1=C(c2cc(-c3ccc(Cl)cc3)c(C#N)c(N)n2)C(c2ccccc2)NC(=S)N1 (stereo not given) has a reported growth of 82.6

Data point: O=C1Nc2ccc(Cl)cc2/C1=C/c1ccc(OCc2ccccn2)cc1 ; growth = 16

---

# Test system: SK-MEL-2 melanoma
# assay comment: NCI-60 one-dose screen, 48 h (100 = growth as untreated, 0 = no growth, -100 = all killed)
# setup conditions: 10 µM
This is part of a sample that, as a whole, favours compounds with a hit. Of some 83,000 tested, about 20% had one in any assay.
Rule: growth of 60% or more gives Met; anything lower gives Not met.

Some solved entries appear below for comparison.
O=C1CCC(N2Cc3cc(CC(=O)Nc4ccc(N5CCCCC5)cc4)ccc3C2=O)C(=O)N1 (stereo unspecified)
Met
COc1ccc2nc(Cl)c(-c3cc(-c4ccccc4)nc(N)n3)cc2c1
Met
O=C(Nc1ccc(I)cc1)Nc1nc2ccc([N+](=O)[O-])cc2s1
Not met
N#Cc1ccc(NC(=O)CSc2ccc(-c3ccc(Br)cc3)nn2)cc1
Not met
COc1csc(/C=N/NC(=O)c2[nH]c3ccc(Br)cc3c2-c2ccccc2)c1
Not met

// switching to the query compound
Enquiry: Given the entry COc1ccccc1[C@H]1C(C(=O)c2ccc(O)cc2)C2(N[C@@H]1c1ccccc1)C(=O)Nc1ccc(Br)cc12 (stereo partly specified) , answer whether its growth meets or surpasses 60%.
Return: Not met

The origin of these recorded values is PubChem BioAssay (NCI).
